B1: library; a variant is named by its letters at N, in order (parent)
chain: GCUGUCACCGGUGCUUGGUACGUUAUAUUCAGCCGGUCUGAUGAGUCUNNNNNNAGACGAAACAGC

variants of: B1; assay: FACS-Seq fitted mean relative fluorescence mCherry/BFP with ligand (log10 relative fluorescence); HEK293T overexpressing SLC46A1; ligand concentration (+) FACS-Seq: 6 mM; higher = higher reporter protein expression; settings: with (6R,S)-folinic acid; ligand present: yes

{"Input Sequence": "GCUGUCACCGGUGCUUGGUACGUUAUAUUCAGCCGGUCUGAUGAGUCUUAAGAGAGACGAAACAGC [UAAGAG]", "FACS-Seq fitted mean (log10)": 0.3}
{"Input Sequence": "GCUGUCACCGGUGCUUGGUACGUUAUAUUCAGCCGGUCUGAUGAGUCUCCCGGUAGACGAAACAGC [CCCGGU]", "FACS-Seq fitted mean (log10)": 0.0649}
{"Input Sequence": "GCUGUCACCGGUGCUUGGUACGUUAUAUUCAGCCGGUCUGAUGAGUCUUGCUGAAGACGAAACAGC [UGCUGA]", "FACS-Seq fitted mean (log10)": 0.321}
{"Input Sequence": "GCUGUCACCGGUGCUUGGUACGUUAUAUUCAGCCGGUCUGAUGAGUCUUAAGGAAGACGAAACAGC [UAAGGA]", "FACS-Seq fitted mean (log10)": 0.217}
{"Input Sequence": "GCUGUCACCGGUGCUUGGUACGUUAUAUUCAGCCGGUCUGAUGAGUCUGUGAAGAGACGAAACAGC [GUGAAG]", "FACS-Seq fitted mean (log10)": 0.436}
{"Input Sequence": "GCUGUCACCGGUGCUUGGUACGUUAUAUUCAGCCGGUCUGAUGAGUCUCUUGAGAGACGAAACAGC [CUUGAG]", "FACS-Seq fitted mean (log10)": 0.534}
{"Input Sequence": "GCUGUCACCGGUGCUUGGUACGUUAUAUUCAGCCGGUCUGAUGAGUCUAACCAUAGACGAAACAGC [AACCAU]", "FACS-Seq fitted mean (log10)": 0.303}
{"Input Sequence": "GCUGUCACCGGUGCUUGGUACGUUAUAUUCAGCCGGUCUGAUGAGUCUUCGAUGAGACGAAACAGC [UCGAUG]", "FACS-Seq fitted mean (log10)": 0.486}
{"Input Sequence": "GCUGUCACCGGUGCUUGGUACGUUAUAUUCAGCCGGUCUGAUGAGUCUUUCCGAAGACGAAACAGC [UUCCGA]", "FACS-Seq fitted mean (log10)": -0.101}
{"Input Sequence": "GCUGUCACCGGUGCUUGGUACGUUAUAUUCAGCCGGUCUGAUGAGUCUUGCGGGAGACGAAACAGC [UGCGGG]", "FACS-Seq fitted mean (log10)": 0.675}
{"Input Sequence": "GCUGUCACCGGUGCUUGGUACGUUAUAUUCAGCCGGUCUGAUGAGUCUUUCCUGAGACGAAACAGC [UUCCUG]", "FACS-Seq fitted mean (log10)": 0.493}
{"Input Sequence": "GCUGUCACCGGUGCUUGGUACGUUAUAUUCAGCCGGUCUGAUGAGUCUUAACGAAGACGAAACAGC [UAACGA]", "FACS-Seq fitted mean (log10)": 0.34}
{"Input Sequence": "GCUGUCACCGGUGCUUGGUACGUUAUAUUCAGCCGGUCUGAUGAGUCUGUUUAGAGACGAAACAGC [GUUUAG]", "FACS-Seq fitted mean (log10)": 0.495}
{"Input Sequence": "GCUGUCACCGGUGCUUGGUACGUUAUAUUCAGCCGGUCUGAUGAGUCUAUAGAGAGACGAAACAGC [AUAGAG]", "FACS-Seq fitted mean (log10)": 0.431}
{"Input Sequence": "GCUGUCACCGGUGCUUGGUACGUUAUAUUCAGCCGGUCUGAUGAGUCUAUACCAAGACGAAACAGC [AUACCA]", "FACS-Seq fitted mean (log10)": -0.268}
{"Input Sequence": "GCUGUCACCGGUGCUUGGUACGUUAUAUUCAGCCGGUCUGAUGAGUCUUUGAAGAGACGAAACAGC [UUGAAG]", "FACS-Seq fitted mean (log10)": 0.374}
{"Input Sequence": "GCUGUCACCGGUGCUUGGUACGUUAUAUUCAGCCGGUCUGAUGAGUCUACUGUGAGACGAAACAGC [ACUGUG]", "FACS-Seq fitted mean (log10)": 0.593}
{"Input Sequence": "GCUGUCACCGGUGCUUGGUACGUUAUAUUCAGCCGGUCUGAUGAGUCUGAAUUAAGACGAAACAGC [GAAUUA]", "FACS-Seq fitted mean (log10)": 0.572}
{"Input Sequence": "GCUGUCACCGGUGCUUGGUACGUUAUAUUCAGCCGGUCUGAUGAGUCUUGAGCGAGACGAAACAGC [UGAGCG]", "FACS-Seq fitted mean (log10)": 0.218}
{"Input Sequence": "GCUGUCACCGGUGCUUGGUACGUUAUAUUCAGCCGGUCUGAUGAGUCUCGAGAAAGACGAAACAGC [CGAGAA]", "FACS-Seq fitted mean (log10)": 0.426}
{"Input Sequence": "GCUGUCACCGGUGCUUGGUACGUUAUAUUCAGCCGGUCUGAUGAGUCUAUGGGGAGACGAAACAGC [AUGGGG]", "FACS-Seq fitted mean (log10)": 0.258}
{"Input Sequence": "GCUGUCACCGGUGCUUGGUACGUUAUAUUCAGCCGGUCUGAUGAGUCUGAGAGAAGACGAAACAGC [GAGAGA]", "FACS-Seq fitted mean (log10)": 0.279}
{"Input Sequence": "GCUGUCACCGGUGCUUGGUACGUUAUAUUCAGCCGGUCUGAUGAGUCUGGACGAAGACGAAACAGC [GGACGA]", "FACS-Seq fitted mean (log10)": 0.493}
{"Input Sequence": "GCUGUCACCGGUGCUUGGUACGUUAUAUUCAGCCGGUCUGAUGAGUCUAUGGAAAGACGAAACAGC [AUGGAA]", "FACS-Seq fitted mean (log10)": -0.0772}
{"Input Sequence": "GCUGUCACCGGUGCUUGGUACGUUAUAUUCAGCCGGUCUGAUGAGUCUUGUGCGAGACGAAACAGC [UGUGCG]", "FACS-Seq fitted mean (log10)": 0.442}
{"Input Sequence": "GCUGUCACCGGUGCUUGGUACGUUAUAUUCAGCCGGUCUGAUGAGUCUUGCGACAGACGAAACAGC [UGCGAC]", "FACS-Seq fitted mean (log10)": 0.26}
{"Input Sequence": "GCUGUCACCGGUGCUUGGUACGUUAUAUUCAGCCGGUCUGAUGAGUCUAUGGUGAGACGAAACAGC [AUGGUG]", "FACS-Seq fitted mean (log10)": 0.485}
{"Input Sequence": "GCUGUCACCGGUGCUUGGUACGUUAUAUUCAGCCGGUCUGAUGAGUCUGUAAAUAGACGAAACAGC [GUAAAU]", "FACS-Seq fitted mean (log10)": 0.464}
{"Input Sequence": "GCUGUCACCGGUGCUUGGUACGUUAUAUUCAGCCGGUCUGAUGAGUCUUGAAGAAGACGAAACAGC [UGAAGA]", "FACS-Seq fitted mean (log10)": 0.513}
{"Input Sequence": "GCUGUCACCGGUGCUUGGUACGUUAUAUUCAGCCGGUCUGAUGAGUCUGAACCUAGACGAAACAGC [GAACCU]", "FACS-Seq fitted mean (log10)": -0.0321}
{"Input Sequence": "GCUGUCACCGGUGCUUGGUACGUUAUAUUCAGCCGGUCUGAUGAGUCUACUUAAAGACGAAACAGC [ACUUAA]", "FACS-Seq fitted mean (log10)": -0.044}
{"Input Sequence": "GCUGUCACCGGUGCUUGGUACGUUAUAUUCAGCCGGUCUGAUGAGUCUGGAGCCAGACGAAACAGC [GGAGCC]", "FACS-Seq fitted mean (log10)": 0.0129}
{"Input Sequence": "GCUGUCACCGGUGCUUGGUACGUUAUAUUCAGCCGGUCUGAUGAGUCUUAGACUAGACGAAACAGC [UAGACU]", "FACS-Seq fitted mean (log10)": 0.559}
{"Input Sequence": "GCUGUCACCGGUGCUUGGUACGUUAUAUUCAGCCGGUCUGAUGAGUCUAACUCGAGACGAAACAGC [AACUCG]", "FACS-Seq fitted mean (log10)": 0.302}
{"Input Sequence": "GCUGUCACCGGUGCUUGGUACGUUAUAUUCAGCCGGUCUGAUGAGUCUGAACGAAGACGAAACAGC [GAACGA]", "FACS-Seq fitted mean (log10)": 0.623}
{"Input Sequence": "GCUGUCACCGGUGCUUGGUACGUUAUAUUCAGCCGGUCUGAUGAGUCUUAAGUUAGACGAAACAGC [UAAGUU]", "FACS-Seq fitted mean (log10)": 0.124}
{"Input Sequence": "GCUGUCACCGGUGCUUGGUACGUUAUAUUCAGCCGGUCUGAUGAGUCUGUCCGGAGACGAAACAGC [GUCCGG]", "FACS-Seq fitted mean (log10)": -0.0351}
{"Input Sequence": "GCUGUCACCGGUGCUUGGUACGUUAUAUUCAGCCGGUCUGAUGAGUCUCAGGACAGACGAAACAGC [CAGGAC]", "FACS-Seq fitted mean (log10)": 0.0891}
{"Input Sequence": "GCUGUCACCGGUGCUUGGUACGUUAUAUUCAGCCGGUCUGAUGAGUCUUGGCAGAGACGAAACAGC [UGGCAG]", "FACS-Seq fitted mean (log10)": 0.61}
